Exercise: for every item that follows, state its recorded pKi.
// pKi is dimensionless: -log10 of concentration (M)

Recorded pKi for CCCN1CCC(c2cccc(O)c2)C1 (stereo not given) on UniProt:P19020 was 7.28

Here FC(F)(F)c1cccc(C2CCNC2)c1 (stereo not given) was tested on UniProt:P19020, and its pKi came to 6.20

# pKi measured on UniProt:P19020 for item CCCN1CCC(c2cccc(C(F)(F)F)c2)C1 (stereo not given) = 7.46

Hey, UniProt:P19020 data for CCCN1CCC(c2cccc(OS(=O)(=O)C(F)(F)F)c2)C1 (stereo not given) : pKi came out at 7.21

This collection of values is drawn from ChEMBL document CHEMBL1159176.
